protein stability index reference
measurementDescription: protein stability index of a GFP-peptide fusion (yeast GPS) (PSI 1-4); higher = more stable; sorted into four equal gates, so the index is relative within each strain
testContext: ubr1∆
Give a plain numeric answer without units written out.

Some sequences with known protein stability index results, for comparison:
biosequence: LNRLLRLIVDPNIADYI [PRP8]
recordedEndpoint: protein stability index
recordedValue: 1.95
--
biosequence: PKQSDEYLKRVSVPVSG [SIR3]
recordedEndpoint: protein stability index
recordedValue: 2.72
--
biosequence: SVVSQIEKGSTFGINLI [FAS1]
recordedEndpoint: protein stability index
recordedValue: 3.26
--
biosequence: YITAKNNVVINFKDMSH [PRP8]
recordedEndpoint: protein stability index
recordedValue: 2.14
--
biosequence: TDKIGRSVPAPGKGILT [FAS2]
recordedEndpoint: protein stability index
recordedValue: 3.21
--
biosequence: QKLDILVAKLKKVKSAS [SMC4]
recordedEndpoint: protein stability index
recordedValue: 2.73
--
biosequence: GKETIARVTGGMKVKAD [RPS14B]
recordedEndpoint: protein stability index
recordedValue: 2.6
--
biosequence: SQTTQLAGMDVEDALDK [FAS2]
recordedEndpoint: protein stability index
recordedValue: 3.62

Find the measured protein stability index of EFFVQVLTHESLHRQQQ [DLS1] and report it. 2.92

Find the measured protein stability index of PNVCNMKQYRDFLGVAS [PRP28] and report it. 1.99

Find the measured protein stability index of VHPDYLYGAITEDRYNE [FAS2] and report it. 1.27

Find the measured protein stability index of STVKKKDIVNISIPKTC [REC8] and report it. 2.62

Find the measured protein stability index of EVEEDDEDDDQPMISPD [SWI3] and report it. 3.15

Find the measured protein stability index of DKARRLGYKAKQGFVIY [RPL15A] and report it. 3.28

Find the measured protein stability index of FFTIDHFIQKLHTARKI [SIR2] and report it. 1.37
